// provenance: patent US20190248902A1

- target_desc: T1, recombinant, soluble human ASGR-1 (human, UniProt P07306 62-291)
- T1 construct: biotinylated in the binning assay; also called soluble huASGR-1; Soluble ASGR-1 (Amgen)
- T1 sequence: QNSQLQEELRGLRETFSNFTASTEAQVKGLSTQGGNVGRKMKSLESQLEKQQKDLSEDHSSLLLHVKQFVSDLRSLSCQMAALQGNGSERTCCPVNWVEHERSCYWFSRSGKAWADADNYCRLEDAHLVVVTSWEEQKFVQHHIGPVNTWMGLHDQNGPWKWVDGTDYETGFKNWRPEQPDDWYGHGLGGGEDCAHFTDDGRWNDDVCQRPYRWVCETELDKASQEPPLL
- measurement_protocol: Octet BLI dissociation, pH 5.6 plus calcium
property_name: % Change Compared to pH 7.4 + Calcium (%)
Write the answer as a number in %, unit excluded.

- binder: "53F7 (antibody, V domains shown, hybridoma mAb) VH: QVQLVQSGAEVKKPGASVKVSCKASGYTFTGYHMHWVRQAPGQGLEWMGWINPNNNGTNYAQKFQGRVTMTRDTSISTAYMELNRLTSDDTAVYYCARDGTSSFDYWGQGTLVTVSS VL: DIQMSQSPSSVSASVGDRVTITCRASQGISRWLAWYQQKPGKAPNLLIYAASSLQSGVPSRFSGSGSGTDFTLTISSLQPEDFAIYYCQQANSFPFTFGPGTKVDIK"
  % Change Compared to pH 7.4 + Calcium [%]: 3
- binder: "192E4 (antibody, V domains shown, hybridoma mAb) VH: QVQLVESGGGVVQPGRSLRLSCAASGFTFSSYGMHWVRQAPGKGLEWVAVIWYDGSNKNYVDSVRGRFTISRDNSKNTLYLQMNSLRAEDTAVYYCARDRSVGYDGMDVWGQGTTVTVSS VL: DIQMTQSPSSLSASVGDRVTITCRASQGIGNYLAWFQQKPGKAPKSLIYVVSSLQSGVPSRFSGSGSGTDFTLTISSLQPEDFATYYCQRYDTYPFTFGPGTKVDIK"
  % Change Compared to pH 7.4 + Calcium [%]: -9
- binder: "190F8 (antibody, V domains shown, hybridoma mAb) VH: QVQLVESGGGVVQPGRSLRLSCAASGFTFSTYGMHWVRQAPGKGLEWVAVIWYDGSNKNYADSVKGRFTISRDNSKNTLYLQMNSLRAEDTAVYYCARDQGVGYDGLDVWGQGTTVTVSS VL: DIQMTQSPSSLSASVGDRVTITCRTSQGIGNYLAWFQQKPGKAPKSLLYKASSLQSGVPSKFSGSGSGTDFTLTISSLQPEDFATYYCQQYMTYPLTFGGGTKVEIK"
  % Change Compared to pH 7.4 + Calcium [%]: -5
- binder: "55B1 (antibody, V domains shown, hybridoma mAb) VH: QVQLVQSGAEVKKPGASVKVSCKASGYTFTGYYFHWVRQAPGQGLEWMGWIHPNNNATNYAQKFQGRVTMTRDTSISTAYMELSRLRSDDTAVYYCAKDGRSSFDYWGQGTLVTVSS VL: DIQMTQSPSSVSASVGDRVTITCRASQVISRWLAWYQQKPGKAPNLLIYAASSLQSGVPSRFSGSGSGTDFTLTISSLQPEDFATYYCQQANSFPFTFGPGTKVDLK"
  % Change Compared to pH 7.4 + Calcium [%]: -2

# next binder below
% Change Compared to pH 7.4 + Calcium measured on 184E7 (antibody, V domains shown, hybridoma mAb) VH: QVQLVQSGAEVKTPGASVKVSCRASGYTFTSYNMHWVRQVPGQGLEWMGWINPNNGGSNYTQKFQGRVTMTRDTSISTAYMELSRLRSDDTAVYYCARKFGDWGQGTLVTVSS VL: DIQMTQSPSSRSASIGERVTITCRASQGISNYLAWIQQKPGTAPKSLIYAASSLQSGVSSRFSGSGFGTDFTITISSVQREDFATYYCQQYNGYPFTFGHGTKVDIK = -9
